Target: UniProt:Q15761
Sequence (Q15761 whole entry): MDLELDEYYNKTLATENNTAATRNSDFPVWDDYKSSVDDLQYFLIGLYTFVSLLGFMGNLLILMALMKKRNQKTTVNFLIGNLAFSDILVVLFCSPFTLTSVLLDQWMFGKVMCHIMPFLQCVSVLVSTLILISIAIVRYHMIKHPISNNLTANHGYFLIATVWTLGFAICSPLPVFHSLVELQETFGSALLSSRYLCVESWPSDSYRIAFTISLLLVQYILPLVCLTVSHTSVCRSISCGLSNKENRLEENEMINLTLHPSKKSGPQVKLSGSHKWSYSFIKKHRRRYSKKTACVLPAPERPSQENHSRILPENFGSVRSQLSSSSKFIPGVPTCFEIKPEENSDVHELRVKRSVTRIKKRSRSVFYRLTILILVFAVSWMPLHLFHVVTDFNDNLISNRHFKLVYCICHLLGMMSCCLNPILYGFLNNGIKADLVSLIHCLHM
parameter measured: Ki

[[record]]
compound_string = "CC[C@H](C)[C@H](N)C(=O)N[C@H]1CCC(=O)NC[C@@H](C(=O)N[C@@H](Cc2ccc(O)cc2)C(=O)N[C@@H](CCCN=C(N)N)C(=O)N[C@@H](CC(C)C)C(=O)N[C@@H](CCCN=C(N)N)C(=O)N[C@@H](Cc2ccc(O)cc2)C(=O)OC)NC(=O)[C@@H]2CCCN2C(=O)[C@@H](NC(=O)[C@@H](N)[C@@H](C)CC)CCC(=O)NC[C@@H](C(=O)N[C@@H](Cc2ccc(O)cc2)C(=O)N[C@@H](CCCN=C(N)N)C(=O)N[C@@H](CC(C)C)C(=O)N[C@@H](CCCN=C(N)N)C(=O)N[C@@H](Cc2ccc(O)cc2)C(=O)OC)NC(=O)[C@@H]2CCCN2C1=O"
parameter_measured = "Ki"
value_measured = "662 nM"


----------
molecular target: Neuropeptide Y receptor type 4 (Homo sapiens); assay: Affinity for cloned Y4 receptor using [125I]PP as radioligand
Sequence (P50391 whole entry): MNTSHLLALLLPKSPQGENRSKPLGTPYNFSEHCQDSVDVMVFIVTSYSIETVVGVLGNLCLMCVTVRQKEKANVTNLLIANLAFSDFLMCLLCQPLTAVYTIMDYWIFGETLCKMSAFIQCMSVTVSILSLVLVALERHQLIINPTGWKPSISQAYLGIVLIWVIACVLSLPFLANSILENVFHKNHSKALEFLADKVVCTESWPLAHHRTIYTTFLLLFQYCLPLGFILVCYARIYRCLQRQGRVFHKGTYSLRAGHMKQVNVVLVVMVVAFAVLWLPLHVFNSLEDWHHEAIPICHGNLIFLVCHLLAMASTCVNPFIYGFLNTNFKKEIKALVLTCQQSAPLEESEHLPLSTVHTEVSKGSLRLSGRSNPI
pKi: −log10 of the molar value.
parameter measured: pKi

[[record]]
substance = "H-INPIYRLRY-NH2"
value_measured = 8.24


----------
Sequence of the target: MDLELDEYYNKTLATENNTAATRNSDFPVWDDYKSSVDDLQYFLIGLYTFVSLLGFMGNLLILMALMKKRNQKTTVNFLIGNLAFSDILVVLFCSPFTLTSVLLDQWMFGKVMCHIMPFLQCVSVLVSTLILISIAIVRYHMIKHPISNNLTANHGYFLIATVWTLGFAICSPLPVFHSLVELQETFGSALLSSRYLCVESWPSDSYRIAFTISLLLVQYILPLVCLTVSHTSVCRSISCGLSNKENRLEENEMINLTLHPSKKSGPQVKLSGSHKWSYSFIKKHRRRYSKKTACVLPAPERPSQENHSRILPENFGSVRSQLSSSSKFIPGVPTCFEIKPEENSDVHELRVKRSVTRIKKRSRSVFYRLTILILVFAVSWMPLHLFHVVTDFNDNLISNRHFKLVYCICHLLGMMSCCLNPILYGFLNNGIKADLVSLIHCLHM
parameter measured: Ki (µM)

[[record]]
compound_string = "CC[C@H](C)[C@H](N)C(=O)N[C@@H](CC(N)=O)C(=O)N1CCC[C@H]1C(=O)N[C@@H](CSSC[C@H](NC(=O)[C@@H]1CCCN1C(=O)[C@H](CC(N)=O)NC(=O)[C@@H](N)[C@@H](C)CC)C(=O)N[C@@H](Cc1ccc(O)cc1)C(=O)N[C@@H](CCCN=C(N)N)C(=O)N[C@@H](CC(C)C)C(=O)N[C@@H](CCCN=C(N)N)C(=O)N[C@@H](Cc1ccc(O)cc1)C(=O)OC)C(=O)N[C@@H](Cc1ccc(O)cc1)C(=O)N[C@@H](CCCN=C(N)N)C(=O)N[C@@H](CC(C)C)C(=O)N[C@@H](CCCN=C(N)N)C(=O)N[C@@H](Cc1ccc(O)cc1)C(=O)OC"
unit_annotation = "µM"
value_measured = 0.464

